molecular target: Carbonic anhydrase 1 (Homo sapiens, UniProt P00915); assay: Inhibition of recombinant human carbonic anhydrase-1 assessed as reduction in enzyme-catalyzed hydration activity using CO2 as substrate preincubated for 15 mins followed substrate addition measured after 10 to 100 sec by phenol red dye based stopped flow assay
Sequence (P00915 whole entry): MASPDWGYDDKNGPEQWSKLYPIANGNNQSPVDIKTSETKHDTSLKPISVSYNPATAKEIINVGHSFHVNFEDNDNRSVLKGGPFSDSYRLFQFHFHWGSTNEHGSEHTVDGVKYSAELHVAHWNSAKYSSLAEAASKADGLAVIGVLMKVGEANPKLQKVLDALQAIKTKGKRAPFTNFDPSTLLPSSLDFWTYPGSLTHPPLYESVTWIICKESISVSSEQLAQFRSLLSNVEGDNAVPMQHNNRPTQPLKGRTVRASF
# reported Ki; entries follow
assay endpoint: Ki

1. CC(=O)Nc1cc(-c2cc(S(N)(=O)=O)c(C)s2)no1	> 10 µM
2. CC(=O)Nc1cc(-c2ccc(C)c(S(N)(=O)=O)c2)no1	> 10 µM
3. COc1ccc(-c2c(C)noc2NC(C)=O)cc1S(N)(=O)=O	> 10 µM
4. COc1ccc(-c2noc(N)c2S(N)(=O)=O)cc1S(N)(=O)=O	> 10 µM
5. COc1ccc(-c2cc(NC(C)=O)on2)cc1S(N)(=O)=O	> 10 µM
6. COc1ccc(S(N)(=O)=O)c(-c2c(C)noc2NC(C)=O)c1	> 10 µM
7. COc1ccc(S(N)(=O)=O)c(-c2cc(NC(C)=O)on2)c1	> 10 µM
8. COc1ccc(S(N)(=O)=O)c(-c2noc(N)c2S(N)(=O)=O)c1	> 10 µM
